Readings of log10 solubility at 24 h for the listed compounds
Test Name: Assessment of solubility (McIlvaine buffers, 24 h shake, UPLC-UV)
Assay type: physicochemical
Experimental Conditions: pH 4.5, aqueous buffer, kinetic from dmso stock
Measurement Name: log10 solubility at 24 h (log10 of the value in µg/mL)

- Cc1cc(COc2c(C)cccc2-c2cccc(-n3ncc(C(=O)O)c3OC(C)C)n2)cc2c1CN(C1CCOCC1)CC2: 1.96
- COc1c(C(=O)O)cnn1-c1cccc(-c2cccc(C)c2OCc2ccc3c(c2)CCN(CC(C)(C)C)C3)n1: 1.91
- COc1c(C(=O)O)cnn1-c1cccc(-c2cccc(C)c2OCc2ccc3c(c2C)CCN(C[C@@H]2CCOC2)C3)n1: 1.93
- COc1c(C(=O)O)cnn1-c1cccc(-c2cccc(C)c2OCc2ccc3c(c2C)CCN(S(C)(=O)=O)C3)n1: -0.03
- COc1c(C(=O)O)cnn1-c1cccc(-c2cccc(C(F)(F)F)c2OCc2ccc3c(c2)CCN(C2CCOCC2)C3)n1: 1.94
- CCCOc1c(C(=O)O)cnn1-c1cccc(-c2cccc(C)c2OCc2ccc3c(c2C)CCN(C2CCOCC2)C3)n1: 2.00
- CCOc1c(C(=O)O)cnn1-c1cccc(-c2cccc(C)c2OCc2ccc3c(c2OC)CCN(C2CCOCC2)C3)n1: 1.89

* * *

Test Name: Assessment of solubility (McIlvaine buffers, 24 h shake, UPLC-UV)
Type: physicochemical
Experimental Conditions: pH 4.5, aqueous buffer, kinetic from dmso stock
Measurement Name: solubility at 24 h (µg/mL)

* COCCOc1c(C(=O)O)cnn1-c1cccc(-c2cccc(C)c2OCc2ccc3c(c2C)CCN(C2CCOCC2)C3)n1 | 98
* CCOc1c(C(=O)O)cnn1-c1cccc(-c2cccc(C)c2OCc2ccc3c(c2C)CCN(CC2COCCO2)C3)n1 (stereo in doubt) | 83
* CCOc1c(C(=O)O)cnn1-c1cccc(-c2cccc(C)c2OCc2ccc3c(c2)CCN(C2CC(C)OC(C)C2)C3)n1 (stereo not shown) | 84
* CCOc1c(C(=O)O)cnn1-c1cccc(-c2cccc(C)c2OCc2cc(C)c3c(c2)CCN(C2CCCOC2)C3)n1 (stereo not shown) | 98
* COc1c(C(=O)O)cnn1-c1cccc(-c2cccc(C)c2OCc2ccc3c(c2)CCN(C2CCOCC2OC)C3)n1 (stereo not shown) | 84
* CCOc1c(C(=O)O)cnn1-c1cccc(-c2cccc(C)c2OCc2ccc3c(c2)CCN(C(C)CF)C3)n1 (stereo not shown) | 69
* COc1c(C(=O)O)cnn1-c1cccc(-c2cccc(C)c2OCc2ccc3c(c2C)CCN([C@@H]2CCOC2)C3)n1 | 69

* * *

Test Name: Assessment of solubility (McIlvaine buffers, 24 h shake, UPLC-UV)
Assay type: physicochemical
Experimental Conditions: pH 6.8, aqueous buffer, kinetic from dmso stock
Description: Solubility is measured by the following method. 100 uL, 10 mM DMSO stock solution of each compound is prepared in a 96 well plate format. The experiment is done in single determination at 3 pH values (2.2, 4.5 and 6.8). For each pH and one reference, 40 uL of each compound is needed. McIlvaine pH 2.2: To 2.076 g citric acid monohydrate and 0.043 g Na2HPO4×2H2O add 100 ml deionized water […] The samples are measured with UPLC-UV using the chromatographic method described below. […]
Is solubility at 24 h at least 70 µg/mL? Then Fulfilled. If not, Not fulfilled.

• CCOc1c(C(=O)O)cnn1-c1cccc(-c2cccc(C)c2OCc2cc(C)c3c(c2)CCN([C@@H]2CCCOC2)C3)n1 = Fulfilled
• CCOc1c(C(=O)O)cnn1-c1cccc(-c2cccc(C)c2OCc2ccc3c(c2CC)CCN(C2CCOCC2)C3)n1 = Not fulfilled
• COCC(C)N1CCc2cc(COc3c(C)cccc3-c3cccc(-n4ncc(C(=O)O)c4OC(C)C)n3)ccc2C1 (stereo not shown) = Fulfilled
• Cc1cccc(-c2cccc(-n3ncc(C(=O)O)c3OC(C)C)n2)c1OCc1ccc2c(c1C)CCN(C1COC1)C2 = Fulfilled
• COc1c(C(=O)O)cnn1-c1cccc(-c2cccc(C)c2OCc2ccc3c(c2C)CCN(C[C@@H]2CCCCO2)C3)n1 = Fulfilled
• COc1c(C(=O)O)cnn1-c1cccc(-c2cccc(C)c2OCc2cc(F)c3c(c2)CCN(C2CCOCC2)C3)n1 = Not fulfilled
• COc1c(C(=O)O)cnn1-c1cccc(-c2cccc(C)c2OCc2ccc3c(c2)CCN(C2CCOC(C)(C)C2)C3)n1 (stereo not shown) = Fulfilled
• CCOc1c(C(=O)O)cnn1-c1cccc(-c2cccc(C)c2OCc2ccc3c(c2)CCN(C(C)CF)C3)n1 (stereo not shown) = Not fulfilled
• Cc1cccc(-c2cccc(-n3ncc(C(=O)O)c3OC(C)C)n2)c1OCc1ccc2c(c1)CCN([C@H]1CCCOC1)C2 = Not fulfilled

* * *

Test Name: human liver microsome (HLM) metabolic stability assay
Type: in vitro ADME
Experimental Conditions: human liver microsomes; % hepatic blood flow calculated from t1/2
Measurement Name: HLM (% Qh)

• CCOc1c(C(=O)O)cnn1-c1cccc(-c2cccc(Cl)c2OCc2ccc3c(c2)CCN(CCOC)C3)n1 [Compound 58] = <24 % Qh
• COc1c(C(=O)O)cnn1-c1cccc(-c2cccc(C)c2OCc2ccc3c(c2)CCN(C2CCC(F)(F)CC2)C3)n1 [Compound 5] = <24 % Qh
• COc1c(C(=O)O)cnn1-c1cccc(-c2cccc(C)c2OCc2ccc3c(c2C)CCN(C[C@@H]2COCCO2)C3)n1 [Compound 139] = <24 % Qh
• COc1c(C(=O)O)cnn1-c1cccc(-c2cccc(C)c2OCc2ccc3c(c2C)CCN(C2CCOC2)C3)n1 (stereo not drawn) [Compound 31] = <24 % Qh
• COc1c(C(=O)O)cnn1-c1cccc(-c2cccc(C(F)(F)F)c2OCc2ccc3c(c2)CCN(C2COC2)C3)n1 [Compound 9] = <24 % Qh
• CCOc1c(C(=O)O)cnn1-c1cccc(-c2cccc(C)c2OCc2ccc3c(c2C)CCN(C[C@H]2CCCCO2)C3)n1 [Compound 232] = <24 % Qh
• CCOc1c(C(=O)O)cnn1-c1cccc(-c2cccc(C)c2OCc2cc3c(c(C(F)(F)F)c2)CN(C2CCOCC2)CC3)n1 [Compound 157] = 31 % Qh
• CCOc1c(C(=O)O)cnn1-c1cccc(-c2cccc(C)c2OCc2ccc3c(c2)CN(C2CCOCC2)C3)n1 [Compound 216] = <24 % Qh
• COc1c(C(=O)O)cnn1-c1cccc(-c2cccc(C)c2OCc2ccc3c(c2)C(C)(C)CN(C2COC2)C3)n1 [Compound 10] = 30 % Qh
• COc1c(C(=O)O)cnn1-c1cccc(-c2cccc(C)c2OCc2ccc3c(c2C)CCN(C[C@H]2CCCCO2)C3)n1 [Compound 199] = <24 % Qh
• CCOc1c(C(=O)O)cnn1-c1cccc(-c2cccc(C)c2OCc2ccc3c(c2)CCN(C2CCOC2C)C3)n1 (stereo not drawn) [Compound 71] = <24 % Qh
• COc1c(C(=O)O)cnn1-c1cccc(-c2cccc(C(F)(F)F)c2OCc2ccc3c(c2)CCN(C2CCOCC2)C3)n1 [Compound 83] = <24 % Qh
• COc1c(C(=O)O)cnn1-c1cccc(-c2cccc(C)c2OCc2ccc3c(c2C)CCN([C@@H]2CCCOC2)C3)n1 [Compound 140] = <24 % Qh
• Cc1cccc(-c2cccc(-n3ncc(C(=O)O)c3OC(C)C)n2)c1OCc1ccc2c(c1)CCN(CC1(C)COC1)C2 [Compound 40] = <24 % Qh
• CCOc1c(C(=O)O)cnn1-c1cccc(-c2cccc(C)c2OCc2ccc3c(c2C)CCN(CC2(F)COC2)C3)n1 [Compound 208] = <24 % Qh
• CCOc1c(C(=O)O)cnn1-c1cccc(-c2cccc(C)c2OCc2ccc3c(c2C)CCN(CC2(C)COC2)CC3)n1 [Compound 190] = 43 % Qh
• COc1c(C(=O)O)cnn1-c1cccc(-c2cccc(Cl)c2OCc2ccc3c(c2)CCN(C2COC2)C3)n1 [Compound 7] = <24 % Qh
• COc1c(C(=O)O)cnn1-c1cccc(-c2cccc(C)c2OCc2cc(F)c3c(c2)CCN(C2CCOCC2)C3)n1 [Compound 201] = <24 % Qh
• COc1c(C(=O)O)cnn1-c1cccc(-c2cccc(C)c2OCc2ccc3c(c2)CCN([C@H]2CC[C@]4(CCCO4)CC2)C3)n1 [Compound 102] = <24 % Qh
• CCOc1c(C(=O)O)cnn1-c1cccc(-c2cccc(C)c2OCc2cc(C)c3c(c2)CN(C2CCOCC2)C3)n1 [Compound 118] = <24 % Qh
• CCOc1c(C(=O)O)cnn1-c1cccc(-c2cccc(C)c2OCc2ccc3c(c2F)CCN(C2CCOCC2)C3)n1 [Compound 159] = <24 % Qh
• COc1c(C(=O)O)cnn1-c1cccc(-c2cccc(C)c2OCc2ccc3c(c2C)CCN(C2COC2)CC3)n1 [Compound 176] = 28 % Qh
• COc1c(C(=O)O)cnn1-c1cccc(-c2cccc(C)c2OCc2ccc3c(c2)CCN(CC2CC(F)(F)C2)C3)n1 [Compound 26] = 29 % Qh
• CCOc1c(C(=O)O)cnn1-c1cccc(-c2cccc(C)c2OCc2ccc3c(c2)CCN(C(C)CS(C)(=O)=O)C3)n1 (stereo not drawn) [Compound 70] = <24 % Qh
• CCOc1c(C(=O)O)cnn1-c1cccc(-c2cccc(C)c2OCc2ccc3c(c2C)CCN(C2COC2)C3)n1 [Compound 164] = <24 % Qh
• CC[C@H](C)Oc1c(C(=O)O)cnn1-c1cccc(-c2cccc(C)c2OCc2ccc3c(c2C)CCN(C2CCCOC2)C3)n1 (stereo partly drawn) [Compound 135] = 29 % Qh
• COc1c(C(=O)O)cnn1-c1cccc(-c2cccc(C)c2OCc2ccc3c(c2)CCN(CCS(C)(=O)=O)C3)n1 [Compound 74] = <24 % Qh
